experiment: self-splicing fitness, log relative to wild type (ln ratio); higher = more splicing; Tetrahymena group I intron in knt gene, E. coli kanamycin selection, DiMSum; sequences stand for … in CUCUCU…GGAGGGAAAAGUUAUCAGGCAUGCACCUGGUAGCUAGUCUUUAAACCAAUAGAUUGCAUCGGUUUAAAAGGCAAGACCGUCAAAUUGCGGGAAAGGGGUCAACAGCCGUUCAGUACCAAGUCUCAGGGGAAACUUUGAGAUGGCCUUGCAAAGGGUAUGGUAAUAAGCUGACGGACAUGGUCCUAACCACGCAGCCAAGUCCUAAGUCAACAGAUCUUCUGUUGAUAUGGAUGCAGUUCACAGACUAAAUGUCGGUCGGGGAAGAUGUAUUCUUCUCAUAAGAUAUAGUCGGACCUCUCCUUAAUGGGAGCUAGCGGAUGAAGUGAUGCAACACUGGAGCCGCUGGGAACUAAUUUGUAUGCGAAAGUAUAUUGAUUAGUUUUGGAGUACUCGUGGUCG; settings: 37 °C;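 note: selection with 25 µg/mL kanamycin versus none on LB agar overnight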
// map self-splicing fitness (ln) to label using lower bin (below -2), middle bin (-2 to below -1), upper bin (-1 or more)

A selection of reference data follows.
[[record]]
sequence_chain = "CAAUAGCAAUAUUACGUAAA"
group = "lower bin"

[[record]]
sequence_chain = "AACAAGCAAUAUUACGAAAC"
group = "lower bin"

[[record]]
sequence_chain = "UGAUAGCAAUAUUACGGUAG"
group = "middle bin"

[[record]]
sequence_chain = "CUUCAGCAAUAUUACGUAGG"
group = "upper bin"

[[record]]
sequence_chain = "UUAAAGCAAUAUUACGCGUA"
group = "upper bin"


# classify by self-splicing fitness (ln) band: AUGAAGCAAUAUUACGGAGU
upper bin

Categorize the following entry: UUCCAGCAAUAUUACGCCCG
middle bin

Into which category would you place UCGUAGCAAUAUUACGAUGG ?
middle bin

Which category does the recorded self-splicing fitness (ln) put AGGAAGCAAUAUUACGCGUA in?
upper bin

Looking at CCAUAGCAAUAUUACGAGGC , which class would you pick?
lower bin

Sort into band: GCCGAGCAAUAUUACGGACU
upper bin
